Data origin: paper PMC6155626

Tested on: Ralstonia solanacearum
Test: microbe, parasite or virus in culture
Format: cell-based
Conditions: Ralstonia solanacearum, R. solanacearum
value type: log10 of EC50 (log10 of the value in µg/mL)
On a log10 scale: recorded EC50, unit µg/mL.

CS(=O)(=O)c1nnc(COc2ccc(Cl)cc2Cl)o1 | 1.31
CS(=O)(=O)c1nnc(COc2ccc(Cl)cc2)o1 | 1.13
CS(=O)(=O)c1nnc(COc2ccc(F)cc2)o1 | 0.22

Provide each entry's log10 of EC50 from the list below.
1. S=c1[nH]nc(NCNc2n[nH]c(=S)s2)s1 [Bismerthiazol, reference compound]
2. Cc1cc(Cl)ccc1OCc1nnc(S(C)(=O)=O)o1
3. CS(=O)(=O)c1nnc(COc2ccc(Br)cc2)o1
4. CCS(=O)(=O)c1nnc(COc2ccc(F)cc2)o1
5. CS(=O)(=O)c1nnc(COc2ccccc2)o1

Reply:
1. 1.78
2. 1.17
3. 1.29
4. 0.89
5. 1.13

* * *

System: Xanthomonas axonopodis pv. citri
Experiment: microbe, parasite or virus in culture
Type: cell-based
Details: Xanthomonas axonopodis, read-out: Inhibition rate
Short version: inhibition at 200 µg/mL at least 60% is class 1, less is class 0.

Consider the worked cases shown below.
CCS(=O)(=O)c1nnc(COc2ccc(F)cc2)o1 | class 1
CCS(=O)(=O)c1nnc(COc2ccc(Cl)cc2Cl)o1 | class 1
CS(=O)(=O)c1nnc(COc2ccc(Cl)cc2)o1 | class 1
Cc1cc(Cl)ccc1OCc1nnc(S(C)(=O)=O)s1 | class 0
O=S(=O)(Cc1ccccc1)c1nnc(COc2ccc(Br)cc2)o1 | class 0
CCS(=O)(=O)c1nnc(COc2ccc(F)cc2)s1 | class 0

Next, consider the following molecule.
Ask: Has CS(=O)(=O)c1nnc(COc2ccccc2)o1 a recorded inhibition at 200 µg/mL greater than or equal to 60%?
Reply: class 1

* * *

System: Xanthomonas oryzae pv. oryzae
Experiment: microbe, parasite or virus in culture
Format: cell-based
Conditions: Xanthomonas oryzae, read-out: Inhibition rate, X. oryzae, 100 μg/mL, average of three replicates
value type: inhibition at 100 µg/mL
Respond with the figure and its unit, in that order.

Batch lookup, inhibition at 100 µg/mL per entry.
1. CS(=O)(=O)c1nnc(COc2ccc(F)cc2)s1
2. CS(=O)(=O)c1nnc(COc2ccc(Cl)cc2Cl)o1

Reply:
["92%", "100%"]

* * *

Test system: Xanthomonas axonopodis pv. citri
Experiment: microbe, parasite or virus in culture
Type: cell-based
Conditions: Xanthomonas axonopodis, read-out: Inhibition rate
Kindly state inhibition at 200 µg/mL for each of the entries shown.
One number for each entry, in %.

Would you please look over these solved cases?
CS(=O)(=O)c1nnc(COc2ccc(Br)cc2)o1 | 91
CS(=O)(=O)c1nnc(COc2ccc(Cl)cc2Cl)o1 | 69

For each of the molecules below, note its inhibition at 200 µg/mL.
1. CS(=O)(=O)c1nnc(COc2ccc(Br)cc2)s1
2. S=c1[nH]nc(NCNc2n[nH]c(=S)s2)s1 [Bismerthiazol, reference compound]

Reply:
[25, 67]

Batch request: inhibition at 200 µg/mL for each of the following molecules.
1. O=S(=O)(Cc1ccccc1)c1nnc(COc2ccc(Cl)cc2Cl)o1
2. Cc1cc(Cl)ccc1OCc1nnc(S(C)(=O)=O)o1

Reply:
26
100
